Listed compounds paired with reported pIC50
subject_of_test: human Nav 1.8 (Homo sapiens, UniProt Q9Y5Y9)
Sequence (Q9Y5Y9 whole entry, looked up, the tested form may be a part): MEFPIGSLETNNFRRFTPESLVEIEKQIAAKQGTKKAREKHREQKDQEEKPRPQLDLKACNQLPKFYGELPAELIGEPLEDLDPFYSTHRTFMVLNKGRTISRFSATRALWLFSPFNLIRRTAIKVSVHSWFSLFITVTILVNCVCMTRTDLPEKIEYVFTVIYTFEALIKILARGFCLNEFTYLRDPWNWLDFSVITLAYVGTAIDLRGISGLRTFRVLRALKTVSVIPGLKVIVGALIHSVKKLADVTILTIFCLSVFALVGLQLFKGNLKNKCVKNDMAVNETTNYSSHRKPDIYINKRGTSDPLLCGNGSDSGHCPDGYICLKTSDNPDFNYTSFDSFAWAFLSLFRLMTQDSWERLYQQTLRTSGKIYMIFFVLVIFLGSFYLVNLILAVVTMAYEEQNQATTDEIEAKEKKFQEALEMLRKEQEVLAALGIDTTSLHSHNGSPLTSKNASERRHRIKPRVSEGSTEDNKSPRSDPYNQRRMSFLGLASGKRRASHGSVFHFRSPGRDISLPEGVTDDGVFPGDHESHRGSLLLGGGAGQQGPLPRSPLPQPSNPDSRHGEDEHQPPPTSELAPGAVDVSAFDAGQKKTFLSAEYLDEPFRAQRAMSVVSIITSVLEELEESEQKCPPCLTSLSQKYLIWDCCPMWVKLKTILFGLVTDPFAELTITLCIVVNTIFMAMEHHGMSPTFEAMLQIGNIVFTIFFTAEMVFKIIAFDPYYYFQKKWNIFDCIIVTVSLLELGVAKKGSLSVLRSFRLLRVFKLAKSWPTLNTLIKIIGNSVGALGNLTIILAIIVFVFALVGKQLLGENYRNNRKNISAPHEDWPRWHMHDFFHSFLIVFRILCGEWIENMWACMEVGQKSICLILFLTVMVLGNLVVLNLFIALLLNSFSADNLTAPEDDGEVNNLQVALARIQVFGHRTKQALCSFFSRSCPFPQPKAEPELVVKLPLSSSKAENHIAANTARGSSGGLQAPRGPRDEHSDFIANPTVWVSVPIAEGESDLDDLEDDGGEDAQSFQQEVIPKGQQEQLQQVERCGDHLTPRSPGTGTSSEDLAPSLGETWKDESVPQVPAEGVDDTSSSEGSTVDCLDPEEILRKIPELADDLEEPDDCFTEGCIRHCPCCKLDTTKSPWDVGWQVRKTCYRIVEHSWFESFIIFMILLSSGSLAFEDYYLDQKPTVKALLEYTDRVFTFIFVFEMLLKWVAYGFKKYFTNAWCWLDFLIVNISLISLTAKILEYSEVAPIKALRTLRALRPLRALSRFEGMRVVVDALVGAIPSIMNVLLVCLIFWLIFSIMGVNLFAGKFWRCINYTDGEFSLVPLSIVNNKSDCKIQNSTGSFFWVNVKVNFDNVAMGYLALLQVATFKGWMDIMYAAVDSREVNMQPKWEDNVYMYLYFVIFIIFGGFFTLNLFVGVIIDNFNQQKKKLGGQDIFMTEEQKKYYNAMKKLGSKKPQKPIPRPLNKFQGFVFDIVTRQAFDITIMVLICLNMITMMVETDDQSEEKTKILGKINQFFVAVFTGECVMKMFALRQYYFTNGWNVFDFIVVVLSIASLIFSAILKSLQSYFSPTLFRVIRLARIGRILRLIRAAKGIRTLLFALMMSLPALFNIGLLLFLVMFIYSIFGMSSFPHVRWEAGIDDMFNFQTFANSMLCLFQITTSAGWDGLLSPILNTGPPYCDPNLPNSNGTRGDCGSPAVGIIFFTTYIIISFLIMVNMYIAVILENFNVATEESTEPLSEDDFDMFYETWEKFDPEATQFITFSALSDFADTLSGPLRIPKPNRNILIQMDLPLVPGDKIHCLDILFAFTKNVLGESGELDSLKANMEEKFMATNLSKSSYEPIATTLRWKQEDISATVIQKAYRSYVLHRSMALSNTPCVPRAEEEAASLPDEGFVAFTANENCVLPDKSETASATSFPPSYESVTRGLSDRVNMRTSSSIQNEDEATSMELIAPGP
assay_method_text: E-VIPR assay detecting and measuring Nav inhibition (HEK cells expressing truncated human Nav 1.8)
Format: cell-based
study_conditions: in the Presence of Human Serum in the E-VIPR Assay; read-out: IC50
From the text: Sodium ion channels are voltage-dependent proteins that can be activated by inducing membrane voltage changes by applying electric fields. The electrical stimulation instrument and methods of use, referred to as E-VIPR, are described in International Publication No. WO 2002/008748 A3 and C.-J. Huang et al. Characterization of voltage-gated sodium channel blockers by electrical stimulation and fluorescence detection of membrane potential, 24 Nature Biotech. […]
pIC50: −log10 of the molar value.

Worked cases, answers included:
>>> recorded_result("COc1cc(F)ccc1[C@@H]1[C@@H](C(=O)Nc2ccnc(C(N)=O)c2)O[C@@](C)(C(F)(F)F)[C@@H]1C (single isomer, unassigned) [Compound 41]")
"7.00 to 8.00"
>>> recorded_result("C[C@@H]1[C@H](c2ccc(F)c(F)c2)[C@@H](C(=O)Nc2ccnc(C(N)=O)c2)O[C@]1(C)C(F)(F)F (single isomer, unassigned) [Compound 90]")
"< 6.00"
>>> recorded_result("COc1c([C@@H]2C[C@@](C)(C(C)(F)F)O[C@H]2C(=O)Nc2ccnc(C(N)=O)c2)ccc(F)c1F (single isomer, unassigned) [Compound 84]")
"< 6.00"

*Q* Requested read-out: pIC50. Entry: C[C@H]1[C@@H](c2ccc(F)c(F)c2OC(F)F)[C@H](C(=O)Nc2ccc(F)c(C(N)=O)c2)O[C@@]1(C)C(F)(F)F (single isomer, unassigned) [Compound 14]
*A* < 6.00

*Q* Give its pIC50 value. Item: COc1c([C@H]2C[C@@](C)(CC(F)(F)F)O[C@@H]2C(=O)Nc2ccnc(C(N)=O)c2)ccc(F)c1F (single isomer, unassigned) [Compound 82]
*A* < 6.00

*Q* Value lookup for pIC50; key = COc1c([C@@H]2C[C@](C)(C(C)(F)F)O[C@H]2C(=O)Nc2ccnc(C(N)=O)c2)ccc(F)c1F (single isomer, unassigned) [Compound 86]
*A* < 6.00

*Q* What value of pIC50 has been recorded for this entry: C[C@H]1[C@@H](c2ccc(F)c(F)c2OC(F)F)[C@H](C(=O)Nc2ccc(F)c(C(N)=O)c2)O[C@@]1(C)C(F)(F)F (single isomer, unassigned) [Compound 15]
*A* > 8.00

* * *

subject_of_test: human Nav 1.8 (Homo sapiens)
assay_method_text: E-VIPR assay detecting and measuring Nav inhibition (HEK cells expressing truncated human Nav 1.8)
Format: cell-based
study_conditions: in the Presence of Human Serum in the E-VIPR Assay; read-out: IC50
pIC50: −log10 of the molar value.
In this section, each of the molecules is paired with its reported pIC50.

# annotated cases, reported pIC50 shown
>>> recorded_result("COc1c([C@H]2[C@H](C(=O)Nc3ccnc(C(N)=O)c3)O[C@@](C)(C(F)(F)F)[C@H]2C)ccc(F)c1C(F)F (single isomer, unassigned)")
"> 8.00"
>>> recorded_result("COc1c([C@@H]2[C@@H](C(=O)Nc3ccnc(C(N)=O)c3)O[C@](C)(C(F)F)[C@@H]2C)ccc(F)c1F (stereo in doubt)")
"< 6.00"
>>> recorded_result("COc1nc(C(F)(F)F)ccc1[C@H]1[C@H](C(=O)Nc2ccnc(C(N)=O)c2)O[C@@](C)(C(F)(F)F)[C@H]1C (stereo in doubt)")
"7.00 to 8.00"
>>> recorded_result("COc1c([C@@H]2[C@@H](C(=O)Nc3ccnc(C(N)=O)c3)OC(C)(C)[C@H]2C)ccc(F)c1F (single isomer, unassigned) [Compound 104]")
"< 6.00"
>>> recorded_result("C[C@H]1[C@@H](c2ccc(F)c(F)c2)[C@H](C(=O)Nc2ccnc(C(N)=O)c2)O[C@@]1(C)C(F)(F)F (single isomer, unassigned)")
"6.00 to 7.00"

Now for a further molecule.
*Q* Param item = C[C@@H]1[C@H](c2ccc(F)cc2OC(F)F)[C@@H](C(=O)Nc2ccnc(C(N)=O)c2)O[C@@]1(C)C(F)(F)F (racemic) ; retrieve measured pIC50.
*A* 7.00 to 8.00
